// data source = ChEMBL document CHEMBL1157539

Test system: HepG2
method_description: GSK_TCMDC: Percent inhibition of human HepG2 cell line. Test compounds present at 10uM.
Type: functional
experimental_endpoint: Inhibition (%)

> print(dat)
                                    molecule  experimental.target  output.unit  measured.result
 1  c1ccc(C2CCC(N3CCC(N4CCN(c5ccccc5)CC4)CC3)CC2)cc1 (centres undefined)                HepG2            %                6
 2  CN1CCN(Cc2cccc(Nc3nccc(Nc4ccc(Oc5ccccc5)cc4)n3)c2)CC1                HepG2            %               30
 3  CC1(C)N=C(N)N=C(N)C1c1ccc(Cl)cc1.Cl (centres undefined)                HepG2            %               16
 4  COc1ccc(N2CCN(CCCCNC(=O)c3ccc(NC(=O)c4cc(Cl)cc(Cl)c4)cc3)CC2)c(OC)c1.Cl                HepG2            %               21
 5  CC(=O)OCCN1C(=O)c2ccc3c4c(ccc(c24)C1=O)C(=O)N(CCOC(C)=O)C3=O                HepG2            %                2
 6  COc1cc(N(C)Cc2cnc3nc(N)nc(N)c3n2)cc(OC)c1OC                HepG2            %               32
 7  COc1ccc(NC(=O)/C=C/c2ccccc2Cl)cc1OCCN1CCC(NCc2cccnc2)CC1                HepG2            %               12
 8  Cc1cccc2nc(-c3ccc(-c4cccc(CN5CCC(C(N)=O)CC5)c4)s3)[nH]c12.O=C(O)C(F)(F)F                HepG2            %                1
 9  O=C(Nc1cccc(-c2ccc(-c3nc4cc(C(F)(F)F)ccc4[nH]3)cc2)c1)Nc1ccc(F)c(F)c1F                HepG2            %               45
10  Cc1ccc2c(=NN=Cc3ccc(Cl)cc3)cc(C)[nH]c2c1                HepG2            %                0
11                         Cl.NOCCCOc1ccccc1                HepG2            %               20
12  CCc1c(C(=O)NC2CCC(N3CCC(c4ccccc4OC)CC3)CC2)[nH]c2ccc(Br)cc12 (centres undefined)                HepG2            %               85
13  Cl.N#Cc1ccc2c(c1)CCN(CCC1CCC(NC(=O)/C=C/c3ccc(Cl)c(Cl)c3)CC1)CC2 (centres undefined)                HepG2            %               31
14  O=C(Nc1cccc(-c2cc(-c3c(Cl)cccc3Cl)no2)c1)c1cncc(-c2cccs2)c1                HepG2            %                0
15  CCC(C)c1ccc(NC(=O)Nc2ccc(Cn3ncc(N4CCCNCC4)c(Cl)c3=O)cc2)cc1.O=C(O)C(F)(F)F (centres undefined)                HepG2            %                0
16  Cc1cc2nc(-c3ccc(C(=O)NC4CCN(Cc5ccccc5)CC4)cc3)[nH]c2cc1C                HepG2            %                0
17  CS(=O)(=O)Cc1ccc(Nc2ncc(Cl)c(Nc3cccnc3C(N)=O)n2)cc1.Cl                HepG2            %               54
18  COc1ccc2c(=NN=Cc3ccc(OC)c4ccccc34)cc(C)[nH]c2c1                HepG2            %                3
19  O=C(Nc1cccc(-c2cccc(-c3nc4cc(F)ccc4[nH]3)c2)c1)c1c[nH]cn1                HepG2            %               13
